Every entry's value here was drawn from patent US12723255B2.

- Format: physicochemical
- Conditions used: Table 11 series
Test readout: Melting temp, Buffer (°C)
Give just the numeric value; °C need not be written.

// field: Melting temp, Buffer; key: MON-HT1: engineered oxygenase protein, amino acid sequence SEQ ID NO:14 (protein) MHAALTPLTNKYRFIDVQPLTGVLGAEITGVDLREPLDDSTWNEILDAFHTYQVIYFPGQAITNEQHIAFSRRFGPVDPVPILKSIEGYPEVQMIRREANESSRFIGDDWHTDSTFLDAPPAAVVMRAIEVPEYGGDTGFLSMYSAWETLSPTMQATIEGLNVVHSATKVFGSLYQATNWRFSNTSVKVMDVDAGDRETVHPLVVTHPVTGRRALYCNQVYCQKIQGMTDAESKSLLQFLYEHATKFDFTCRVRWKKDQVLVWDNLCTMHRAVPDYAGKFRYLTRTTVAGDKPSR ; value = 58

// field: Melting temp, Buffer; key: MON-HT13: engineered oxygenase protein, amino acid sequence SEQ ID NO:47 (protein) MHAALTPLTNKYRFIDVQPLTGVLGAEITGVDLREPLDDSTWNEILDAFHTYQVIYFPGQAITNEQHIAFSRRFGPVDPVPILKSIEGYPEVQMIRREANESSRYIGDDWHADSTFLDAPPAAVVMRAIEVPEYGGDTGFLSMYSAWETLSPTMQATIEGLNVVHSATKVFGSLYQATNWRFSGTSVKVMDVDAGDRETVHPLVVTHPVTGRRALYCNQVYCQKIQGMTDAESKSLLQFLYEHATQFDFTCRVRWKKDQVLVWDNLCTMHRAVPDYAGKFRYLTRTTVAGDKPSR ; value = 57

// field: Melting temp, Buffer; key: MON-HT15: engineered oxygenase protein, amino acid sequence SEQ ID NO:49 (protein) MHAALTPLTNKYRHIDVQPLTGVLGAEITGVDLREPLDDSTWNEILDAFHTYQVIYFPGQAITNEQHIAFSRRFGPVDPVPILKSIEGYPEVQMIRREANESSRYIGDDWHADSTFLDAPPAAVVMRAIEVPEYGGDTGFLSMYSAWETLSPAMQATIEGLNVVHSATKVFGSLYQATNWRFSNTSVKVMDVDAGDRETVHPLVVTHPVTGRRALYCNQIYCQKIQGMTDAESKSLLQFLYEHATQFDFTCRVRWKKDQVLVWDNLCTMHRAVPDYAGKFRYLTRTTVAGDKPSR ; value = 55

// field: Melting temp, Buffer; key: MON-HT17: engineered oxygenase protein, amino acid sequence SEQ ID NO:51 (protein) MHAALTPLTNKYRFIDVQPLTGVLGAEITGVDLREPLDDSTWNEILDAFHTYQVIYFPGQAITNEQHIAFSRRFGPVDPVPILKSIEGYPEVQMIRREANESSRYIGDDWHADSTFLDAPPAAVVMRAIEVPEYGGDTGFLSMYSAWETLSPTMQATIEGLNVVHSATKVFGSLYQATNWRFSNTSVKVMDVDAGDRETVHPLVVTHPVTGRRALYCNQVYCQKIQGMTDAESKSLLQFLYEHATQFDFTCRVRWKKDQVLVWDNLCTMHRAVPDYAGKFRYLTRTTVAGDKPSR ; value = 57
